test system: LLC-PK1 cells (lacking P-gp); assay: Transport of digoxin and ginsenosides across LLC-PK1 cell monolayers; format: in vitro ADME; conditions: SLE 2.0 and 10.0 µg/mL
OBSERVED_PROPERTY: Effect of SLE on transport (AP→BL, BL→AP)

# COMPOUND, READOUT_VALUE
data = [
    ("C[C@H]1O[C@@H](O[C@H]2[C@@H](O)C[C@H](O[C@H]3[C@@H](O)C[C@H](O[C@H]4CC[C@@]5(C)[C@H](CC[C@@H]6[C@@H]5C[C@@H](O)[C@]5(C)[C@@H](C7=CC(=O)OC7)CC[C@]65O)C4)O[C@@H]3C)O[C@@H]2C)C[C@H](O)[C@@H]1O [Digoxin, digoxin, reference compound]", "No transport difference"),
    ("CC(C)=CCC[C@](C)(O[C@@H]1O[C@H](CO)[C@@H](O)[C@H](O)[C@H]1O)[C@H]1CC[C@]2(C)[C@@H]1[C@H](O)C[C@@H]1[C@@]3(C)CC[C@H](O[C@@H]4O[C@H](CO)[C@@H](O)[C@H](O)[C@H]4O[C@@H]4O[C@H](CO)[C@@H](O)[C@H](O)[C@H]4O)C(C)(C)[C@@H]3CC[C@]12C [Rd, ginsenoside Rd]", "No transport difference"),
    ("CC(C)=CCC[C@](C)(O[C@@H]1O[C@H](CO[C@@H]2OC[C@H](O)[C@H](O)[C@H]2O)[C@@H](O)[C@H](O)[C@H]1O)[C@H]1CC[C@]2(C)[C@@H]1[C@H](O)C[C@@H]1[C@@]3(C)CC[C@H](O[C@@H]4O[C@H](CO)[C@@H](O)[C@H](O)[C@H]4O[C@@H]4O[C@H](CO)[C@@H](O)[C@H](O)[C@H]4O)C(C)(C)[C@@H]3CC[C@]12C [Rb2, ginsenoside Rb2]", "No transport difference"),
]

* * *

assay: Rat plasma pharmacokinetics after single-dose vehicle/SLE and digoxin or GE; format: in vivo, Sprague-Dawley rats; settings: female, Sprague-Dawley, rat, plasma, po, rats, single SLE 500 mg/kg ig, 2 h later digoxin 0.5 mg/kg or GE 120 mg/kg ig; read-out: AUCINF_obs
Assign AUC(0-inf) to each entry below.
Could you give me the number in µg·h/mL? Just the number is fine.

Suppose we examine the molecule CC(C)=CCC[C@](C)(O[C@@H]1O[C@H](CO)[C@@H](O)[C@H](O)[C@H]1O)[C@H]1CC[C@]2(C)[C@@H]1[C@H](O)C[C@@H]1[C@@]3(C)CC[C@H](O[C@@H]4O[C@H](CO)[C@@H](O)[C@H](O)[C@H]4O[C@@H]4O[C@H](CO)[C@@H](O)[C@H](O)[C@H]4O)C(C)(C)[C@@H]3CC[C@]12C [Rd, ginsenoside Rd] ; what AUC(0-inf) value has been reported? 9.04

Queued: C[C@H]1O[C@@H](O[C@H]2[C@@H](O)C[C@H](O[C@H]3[C@@H](O)C[C@H](O[C@H]4CC[C@@]5(C)[C@H](CC[C@@H]6[C@@H]5C[C@@H](O)[C@]5(C)[C@@H](C7=CC(=O)OC7)CC[C@]65O)C4)O[C@@H]3C)O[C@@H]2C)C[C@H](O)[C@@H]1O [Digoxin, digoxin, reference compound] 0.091

And what about the molecule CC(C)=CCC[C@](C)(O[C@@H]1O[C@H](CO[C@@H]2OC[C@H](O)[C@H](O)[C@H]2O)[C@@H](O)[C@H](O)[C@H]1O)[C@H]1CC[C@]2(C)[C@@H]1[C@H](O)C[C@@H]1[C@@]3(C)CC[C@H](O[C@@H]4O[C@H](CO)[C@@H](O)[C@H](O)[C@H]4O[C@@H]4O[C@H](CO)[C@@H](O)[C@H](O)[C@H]4O)C(C)(C)[C@@H]3CC[C@]12C [Rb2, ginsenoside Rb2] ? 23.2

Proceed to CC(C)=CCC[C@](C)(O[C@@H]1O[C@H](CO[C@@H]2O[C@H](CO)[C@@H](O)[C@H](O)[C@H]2O)[C@@H](O)[C@H](O)[C@H]1O)[C@H]1CC[C@]2(C)[C@@H]1[C@H](O)C[C@@H]1[C@@]3(C)CC[C@H](O[C@@H]4O[C@H](CO)[C@@H](O)[C@H](O)[C@H]4O[C@@H]4O[C@H](CO)[C@@H](O)[C@H](O)[C@H]4O)C(C)(C)[C@@H]3CC[C@]12C [Rb1, ginsenoside Rb1] 18.5

* * *

Provide the recorded AUC for the entries that follow.
test: Rat plasma pharmacokinetics after 10-day vehicle/SLE and digoxin or GE; type: in vivo, Sprague-Dawley rats; settings: female, Sprague-Dawley, rat, plasma, po, rats, control: vehicle once a day for 10 days, day 11 digoxin 0.5 mg/kg or GE 120 mg/kg ig
Return type: number; implicit unit ng·h/mL.

Fill in: AUC of CC(C)=CCC[C@](C)(O[C@@H]1O[C@H](CO[C@@H]2OC[C@H](O)[C@H](O)[C@H]2O)[C@@H](O)[C@H](O)[C@H]1O)[C@H]1CC[C@]2(C)[C@@H]1[C@H](O)C[C@@H]1[C@@]3(C)CC[C@H](O[C@@H]4O[C@H](CO)[C@@H](O)[C@H](O)[C@H]4O[C@@H]4O[C@H](CO)[C@@H](O)[C@H](O)[C@H]4O)C(C)(C)[C@@H]3CC[C@]12C [Rb2, ginsenoside Rb2] is ___ 15900

Similarly, CC(C)=CCC[C@](C)(O[C@@H]1O[C@H](CO)[C@@H](O)[C@H](O)[C@H]1O)[C@H]1CC[C@]2(C)[C@@H]1[C@H](O)C[C@@H]1[C@@]3(C)CC[C@H](O[C@@H]4O[C@H](CO)[C@@H](O)[C@H](O)[C@H]4O[C@@H]4O[C@H](CO)[C@@H](O)[C@H](O)[C@H]4O)C(C)(C)[C@@H]3CC[C@]12C [Rd, ginsenoside Rd] ? 6570

Can you handle CC(C)=CCC[C@](C)(O[C@@H]1O[C@H](CO[C@@H]2O[C@H](CO)[C@@H](O)[C@H](O)[C@H]2O)[C@@H](O)[C@H](O)[C@H]1O)[C@H]1CC[C@]2(C)[C@@H]1[C@H](O)C[C@@H]1[C@@]3(C)CC[C@H](O[C@@H]4O[C@H](CO)[C@@H](O)[C@H](O)[C@H]4O[C@@H]4O[C@H](CO)[C@@H](O)[C@H](O)[C@H]4O)C(C)(C)[C@@H]3CC[C@]12C [Rb1, ginsenoside Rb1] next? 14100

Next: C[C@H]1O[C@@H](O[C@H]2[C@@H](O)C[C@H](O[C@H]3[C@@H](O)C[C@H](O[C@H]4CC[C@@]5(C)[C@H](CC[C@@H]6[C@@H]5C[C@@H](O)[C@]5(C)[C@@H](C7=CC(=O)OC7)CC[C@]65O)C4)O[C@@H]3C)O[C@@H]2C)C[C@H](O)[C@@H]1O [Digoxin, digoxin, reference compound] 68.3

* * *

target: human MDR1-encoded P-gp (L-MDR1 cells) (Homo sapiens); assay: Transport of digoxin and ginsenosides across L-MDR1 cell monolayers (efflux ratio); assay type: in vitro ADME; conditions: L-MDR1 cells, SLE 2.0 and 10.0 µg/mL
Sequence (P08183 whole entry): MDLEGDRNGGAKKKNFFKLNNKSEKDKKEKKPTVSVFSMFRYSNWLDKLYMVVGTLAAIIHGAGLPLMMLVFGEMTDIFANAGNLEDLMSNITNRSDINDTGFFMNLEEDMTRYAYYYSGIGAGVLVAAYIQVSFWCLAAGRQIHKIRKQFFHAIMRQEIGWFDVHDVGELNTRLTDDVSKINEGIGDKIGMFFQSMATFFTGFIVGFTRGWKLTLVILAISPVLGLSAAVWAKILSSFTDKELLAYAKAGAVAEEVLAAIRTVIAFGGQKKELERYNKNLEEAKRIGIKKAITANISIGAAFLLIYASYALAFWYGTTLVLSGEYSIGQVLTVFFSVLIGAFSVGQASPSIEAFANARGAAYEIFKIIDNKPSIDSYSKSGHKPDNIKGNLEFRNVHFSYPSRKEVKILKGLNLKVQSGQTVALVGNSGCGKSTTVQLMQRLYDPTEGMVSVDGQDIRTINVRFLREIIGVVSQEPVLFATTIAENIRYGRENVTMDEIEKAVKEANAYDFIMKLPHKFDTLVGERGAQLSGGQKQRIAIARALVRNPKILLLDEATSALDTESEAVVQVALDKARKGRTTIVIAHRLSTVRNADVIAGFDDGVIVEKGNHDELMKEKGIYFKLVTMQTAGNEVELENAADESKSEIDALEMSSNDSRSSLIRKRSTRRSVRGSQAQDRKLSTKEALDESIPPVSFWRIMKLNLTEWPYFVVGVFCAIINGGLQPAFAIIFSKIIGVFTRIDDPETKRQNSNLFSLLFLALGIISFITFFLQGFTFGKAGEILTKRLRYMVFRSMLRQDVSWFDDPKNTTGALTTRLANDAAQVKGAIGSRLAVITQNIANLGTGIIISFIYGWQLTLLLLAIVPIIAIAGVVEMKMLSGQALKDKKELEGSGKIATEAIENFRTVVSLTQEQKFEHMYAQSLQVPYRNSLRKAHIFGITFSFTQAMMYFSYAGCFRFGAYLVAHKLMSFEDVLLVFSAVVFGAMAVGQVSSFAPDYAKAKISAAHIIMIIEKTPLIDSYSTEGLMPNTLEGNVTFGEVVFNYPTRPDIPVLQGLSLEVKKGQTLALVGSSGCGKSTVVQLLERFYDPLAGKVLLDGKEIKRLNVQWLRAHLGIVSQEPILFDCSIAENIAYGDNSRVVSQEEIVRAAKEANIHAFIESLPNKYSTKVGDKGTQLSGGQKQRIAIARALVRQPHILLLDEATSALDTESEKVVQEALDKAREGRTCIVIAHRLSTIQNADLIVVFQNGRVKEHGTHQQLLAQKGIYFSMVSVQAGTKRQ
OBSERVED_PROPERTY: Effect of SLE on efflux ratio / transport

# MOLECULE, READOUT_VALUE
data = [
    ("CC(C)=CCC[C@](C)(O)[C@H]1CC[C@]2(C)[C@@H]1[C@H](O)C[C@@H]1[C@@]3(C)CC[C@H](O)C(C)(C)[C@@H]3[C@@H](O[C@@H]3O[C@H](CO)[C@@H](O)[C@H](O)[C@H]3O[C@@H]3O[C@@H](C)[C@H](O)[C@@H](O)[C@H]3O)C[C@]12C [Rg2, ginsenoside Rg2]", "significantly decreased"),
    ("C[C@H]1O[C@@H](O[C@H]2[C@@H](O)C[C@H](O[C@H]3[C@@H](O)C[C@H](O[C@H]4CC[C@@]5(C)[C@H](CC[C@@H]6[C@@H]5C[C@@H](O)[C@]5(C)[C@@H](C7=CC(=O)OC7)CC[C@]65O)C4)O[C@@H]3C)O[C@@H]2C)C[C@H](O)[C@@H]1O [Digoxin, digoxin, reference compound]", "significantly decreased"),
]

* * *

Assay: Rat plasma pharmacokinetics after single-dose vehicle/SLE and digoxin or GE
Assay type: in vivo, Sprague-Dawley rats
Settings: female, Sprague-Dawley, rat, plasma, po, rats, control: single vehicle, 2 h later digoxin 0.5 mg/kg or GE 120 mg/kg ig; read-out: MRTINF_obs
Procedure: This study was carried out in strict accordance with the recommendations in the Guide for the Care and Use of Laboratory Animals of the National Institutes of Health. […] Pharmacokinetic parameters were calculated using the WinNonlin 6.3 program (Pharsight Inc., Mountain View, CA). The elimination half-life (t 1/2) value was calculated as 0.693/β, where β is the elimination rate constant calculated from the terminal linear portion of the log plasma concentration-time curve. […]
OBSERVED_PROPERTY: MRT inf (h)
Quick reminder: number only, in h, skip the unit.

Which value of MRT inf has been reported for C[C@H]1O[C@@H](O[C@H]2[C@@H](O)C[C@H](O[C@H]3[C@@H](O)C[C@H](O[C@H]4CC[C@@]5(C)[C@H](CC[C@@H]6[C@@H]5C[C@@H](O)[C@]5(C)[C@@H](C7=CC(=O)OC7)CC[C@]65O)C4)O[C@@H]3C)O[C@@H]2C)C[C@H](O)[C@@H]1O [Digoxin, digoxin, reference compound] in the records? 5.15
